Source of measurements: the nanobody polyreactivity screen of Harvey et al. (2022)

# Protocol Description: yeast display, Sf9 membrane polyspecificity reagent, FACS + sequencing; frameworks hold sequencing errors
Parameter: polyreactivity (PSR sort gate)

Record excerpt, results attached:
{"Monomer Sequence": "QVLLQESGGGLVQAGGSLRLSCAARGNIFSAGGMGWYSQAPVNVRELVAGIGTGTSTNYADSVKGRFTISRDNAKNTVYLQMNSLKPEDTAVYYCASGYYSGLSHWFWGQGTQVTVSS", "polyreactivity (PSR sort gate)": "low polyreactivity"}
{"Monomer Sequence": "QVQLVESGGGLVQAGGSLSLSCAASGSNFVYYAMGWSRQAPGKERELVAAINFRGGNTYYADSVKGRFTISRDNAKNTVYLQMNSLKPEDTAVYYCAADYRWKWIGGARYDYWGQGTQVTVSS", "polyreactivity (PSR sort gate)": "low polyreactivity"}
{"Monomer Sequence": "QVQLVESGGGLVQAGGSLRLSCDASGRIFSYYAMGWYRPAPGKERELVAAITRSGGNTYYADSVKGRFTISRDNAKNTVYLLMNSLKPEDTAVYYCAARLGRPFYGPNRYDYWGQGTQVTVSS", "polyreactivity (PSR sort gate)": "high polyreactivity"}
{"Monomer Sequence": "QVQLVESGGGLVHAGGSLRLSCAASGLIFKTYTMGWYRQAPGKEREFVAAITTSGGSTYYADSVKGRFTISRDNAKNTDYVEMNRLKPEETAVYFCAAEGYTDATQSLFYYWGQGTQVTVSS", "polyreactivity (PSR sort gate)": "high polyreactivity"}
{"Monomer Sequence": "QVQLGESGGGLVQAGGSLRLSCAASGRTIGYYAMGWYRQAPGKERELVAAISVSGTNTYYADSVKGRFTISRDNAKNTVNLQMNSLKPEDTAVYYCAARKVSGVYRAFYYWGQGTQVTVSS", "polyreactivity (PSR sort gate)": "high polyreactivity"}

Inquiry: Requested read-out: polyreactivity (PSR sort gate). Entry: QVQLVESGGGLVQAGGSLRLSCAHSASTLQIYAMGWDRQAPGKESELVASISSTTSTNYADSVMGRFTISRDNAKNTVYLQMNSMKPEDTAVYYCARERFGGTDSQVVPWFRFDYDYWGQRTQVTVSS
Reply text: low polyreactivity

Inquiry: Requested read-out: polyreactivity (PSR sort gate). Entry: QEQLQESGGGQVQAGGSLLLSCAASGNIIRYYYMGWYRQAPGKERELVAAITYGTSTNYADSVKGRFTISRDNAKNTVYLQMNSLKPEDTAVYYCAVDVNYGDPLDNWGQGTQVTVSS
Reply text: high polyreactivity

Inquiry: Requested read-out: polyreactivity (PSR sort gate). Entry: QVQLVETGGGLVQAGGSLRLRCAASGSIFVPYTMGWYRQAPGKERELVASISYSGGTTYYADSEKGRFTISRDNAKNTVYLQMNSLKPEDTAVYYCAADWDESYSYRRYRHYDYWGQGTQLTVSS
Reply text: low polyreactivity

Inquiry: Requested read-out: polyreactivity (PSR sort gate). Entry: QVQLVESGGGLVQAGGSLRLSCAASGRTFYGNAMGWYRQAPGKERELVAAITFRTSSTYYADSVKGRFTISRDYAKNTVYLQMNSLKPDDTAVFYCAALWIYSGWRYDYWGQGTQVTVSS
Reply text: high polyreactivity

Inquiry: Requested read-out: polyreactivity (PSR sort gate). Entry: QVQLVESGGGLVQAGGSLRLSCAASGSIFRRYAMGWYRQAPGKERELVAAISGSAGSTYYADSVKGRFTISRDNAKNTVYLQMNSLKPEDTAVYYCAADPDDGYDYWGQVTQVTVSS
Reply text: low polyreactivity

Inquiry: Requested read-out: polyreactivity (PSR sort gate). Entry: QVQLVESGGGLVQAGGSLRLSCAASGRTFRNYAMGWSRPAPWKERELVATITSSGASTYYADSVKGRFTISRDNAKNTVYLQMNSLKPEDTAVYYCAARPYTGRYFLCYYYWGQGTQVTVSS
Reply text: high polyreactivity
